molecular target: … (Plasmodium falciparum); test: BLI, target on sensor
TEST_READOUT: Kd (nM)
Use nM as the unit, but write only the number.

Some solved entries appear below for comparison.
BINDER	Kd (nM)
AB-007058 (antibody, V domains shown) VH: QMQLVESGGGVVQPGRSLRLSCTASGFTFSTYAMHWVRQSPGQGLQWVAVISYHSTNKYYEDSVRGRFTISRDNSKNTLYLQMNSLRAEDTAVYYCARDGYSTSFFDFWGQGTLVTVSS VL: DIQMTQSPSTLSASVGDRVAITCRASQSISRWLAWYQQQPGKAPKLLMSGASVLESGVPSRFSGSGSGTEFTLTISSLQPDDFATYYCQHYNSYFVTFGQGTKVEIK	46.3
AB-007031 (antibody, V domains shown) VH: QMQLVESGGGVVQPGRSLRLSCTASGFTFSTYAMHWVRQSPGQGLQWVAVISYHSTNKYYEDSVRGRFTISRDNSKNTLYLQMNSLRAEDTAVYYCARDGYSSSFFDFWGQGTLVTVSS VL: DIQMTQSPSTLSASVGDRVAITCRASQSISRWLAWYQQQPGKAPKLLISGASVLESGVPSRFSGSGSGTEFTLTISSLQPDDFATYYCQHYNSYFVTFGQGTKVEIK	2.89

Kindly consider the entry below.
Kd for AB-007061 (antibody, V domains shown) VH: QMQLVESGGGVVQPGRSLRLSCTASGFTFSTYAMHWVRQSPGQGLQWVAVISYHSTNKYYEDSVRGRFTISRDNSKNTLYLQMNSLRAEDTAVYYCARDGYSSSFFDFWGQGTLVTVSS VL: DIQMTQSPSTLSASVGDRVAITCRASQSIDRWLAWYQQQPGKAPKLLMSGASVLESGVPSRFSGSGSGTEFTLTISSLQPDDFATYYCQHYNSYFVTFGQGTKVEIK ?
4.11
